# run.description: qHTS Assay for Lipid Storage Modulators in Drosophila S3 Cells;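 on cell number change: cells counted by Cell Tracker Red CMTPX staining in the red channel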
# assay.context: BODIPY lipid droplet fluorescence, 18-24 h, cells fed with added oleic acid; measured here: cell count max response
Out of some 320,000 compounds screened, about 2,100 (0.66%) were called active. Not shown: some 53% with an inconclusive outcome. Only a selection was taken, and actives are over-represented in it overall.
readout.type: cell number change (%)
Just the number please, in %, no unit attached.

GET /values?readout=cell number change&item= CC1CCCCN1S(=O)(=O)c1ccc2c(c1)CCN2C(=O)C1CC1 (stereo not drawn)
-5.7

Next molecule: CCN(CC(=O)Nc1ccc(OC)cc1)C(=O)CCS(=O)(=O)c1ccc(C)cc1
4.09

Next molecule: CC1CCCCC1NC(=O)CSc1nc2ccccc2[nH]1 (stereo not drawn)
3.6

Next molecule: CCc1nnc(NC(=O)CSc2nccn2-c2cccc(C)c2)s1
0.532

Next molecule: COc1ccc(C(=O)OCC(=O)NCCCc2ccccc2)c(OC)c1
26.9

Next molecule: COc1ccc(C(=O)N(Cc2ccco2)Cc2cccs2)c(O)c1
11

Next molecule: Cc1ccc(/C=N/NC(=O)Cc2c(F)cccc2Cl)s1
13.4

Next molecule: O=C(C1CCC1)N1CCc2cc(S(=O)(=O)N3CCN(c4ccccn4)CC3)ccc21
-12.3

Next molecule: COCCn1c(C(F)(F)F)ccc(NC(=O)c2ccccc2)c1=O
27.8

Next molecule: Cc1cccn2c(=O)nc(SCC(=O)NCc3ccccc3)nc12
26.3

Next molecule: O=S(=O)(c1cccs1)N1CCN(S(=O)(=O)c2cccs2)CC1
5.37

Next molecule: Cc1ccc(C(=O)C(OC(=O)CCC(=O)Nc2cccc(C)c2)c2ccccc2)cc1 (stereo not drawn)
-1.69

Next molecule: COc1ccc2nc(SCC(=O)NC3CCCCC3C)[nH]c2c1 (stereo not drawn)
1.48

Next molecule: COc1ccc(C(=O)N(CCc2ccccc2)Cc2cccs2)c(OC)c1
-11.1

Next molecule: CCOC(=O)C(=NCCCN(C)C)NNc1ccc(Br)cc1
23.2

Next molecule: Cc1ccc(S(=O)(=O)N2CCC(C(=O)Nc3nnc(C4CCCC4)s3)CC2)cc1
5.99

Next molecule: NC(=O)N/N=C/C=C/c1ccccc1
-8.08

Next molecule: COc1ccc(C(=O)Nc2ccc(C(F)(F)F)n(C)c2=O)cc1
6.54

Next molecule: CCOC(=O)CC(/C(C)=N\O)c1ccccc1 (stereo not drawn)
-0.923

Next molecule: Cc1ccc(N2CCN(S(=O)(=O)c3ccc4c(c3)n(C)c(=O)c(=O)n4C)CC2C)cc1 (stereo not drawn)
9.1

Next molecule: O=C(CC(c1ccccc1)c1ccccc1)NCc1cccnc1
-6.85

Next molecule: COc1ccc(NC(=O)CCC(=O)OC(C(=O)c2ccccc2)c2ccccc2)cc1 (stereo not drawn)
-23.4

Next molecule: CNC(=S)N(Cc1cc2ccc(OC)cc2[nH]c1=O)CC1CCCO1 (stereo not drawn)
-8.74

###

# run.description: qHTS Assay for Lipid Storage Modulators in Drosophila S3 Cells;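 on cell number change: cells counted by Cell Tracker Red CMTPX staining in the red channel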
# assay.context: BODIPY lipid droplet fluorescence, 18-24 h, cells fed with added oleic acid; measured here: cell count max response
Out of some 320,000 compounds screened, about 2,100 (0.66%) were called active. Another 53% or so got no clear call; they are omitted. Shown is part of a subset that was picked to be rich in actives.
readout.type: cell number change (%)
Just the number please, in %, no unit attached.

GET /values?readout=cell number change&item= CN(C)S(=O)(=O)Nc1ccc(Br)cc1F
-21.1

Next compound: COc1ccc(OC)c(CNC(=O)C2CCCN(c3ncnc4c3nc3n4CCCCC3)C2)c1 (stereo not drawn)
-11.8

Next compound: CCC(C(=O)Nc1cccnc1)n1c(=O)[nH]c2ccccc2c1=O (stereo not drawn)
-16

Next compound: CCC(C(=O)Nc1ccc2c(c1)OCCO2)n1c(=O)[nH]c2ccccc2c1=O (stereo not drawn)
-11.6

Next compound: COCCC(=O)NC12CC3CC(CC(C3)C1)C2
-7.91

Next compound: CC1CC(NC(=O)c2cc3c(=O)n4ccccc4nc3n2C)CC(C)(C)C1 (stereo not drawn)
3.3

Next compound: O=S(=O)(Nc1ccc(Cc2ccncc2)cc1)c1ccc(Cl)cc1
4.35

Next compound: O=C(COc1ccccc1Br)N1CCNC1=O
-13

Next compound: CCOc1ccc(NC(=O)CSc2nnc(CNC(=O)c3ccco3)o2)cc1
12.8

Next compound: Cn1c(C(=O)O)cc2c(=O)n3ccccc3nc21
3.26

Next compound: COc1ccccc1-c1cc(C(=O)N2CCc3ccccc3C2)c2ccccc2n1
-2.91

Next compound: CC(=C1C(=O)c2ccccc2C1=O)N1CCN(Cc2ccccc2)CC1
11.8

Next compound: COCCNC(=O)C12CC3CC(CC(Cl)(C3)C1)C2
18

Next compound: O=C(NCCCN1CCCCC1)C1CCN(c2ncnc3c2nc2n3CCCCC2)CC1
15.5

Next compound: CC1CN(C(=O)c2cc3c(=O)n4ccccc4nc3n2C)CC(C)O1 (stereo not drawn)
15.1

Next compound: CCc1ccc(S(=O)(=O)Nc2ccncc2)cc1
-6.32

Next compound: O=C(O)c1cccc(Oc2ccccc2[N+](=O)[O-])c1
-2.25

Next compound: O=C(NCCCN1CCCCC1)C1CCCN(c2ncnc3c2nc2n3CCCCC2)C1 (stereo not drawn)
-4.96

Next compound: O=c1[nH]ncc(N2CCN(Cc3ccccc3)CC2)c1Cl
12.7

Next compound: O=C(COC(=O)Cc1ccc(Br)cc1)NC1CCCCCC1
-16.9

Next compound: CC1CC(C)CN(CCCNC(=O)C2CCCN(c3ncnc4c3nc3n4CCCCC3)C2)C1 (stereo not drawn)
27

Next compound: COP(=O)(OC)C(Nc1cc(Cl)cc(Cl)c1)c1cccc(O)c1 (stereo not drawn)
-20.9

Next compound: CC1CCN(C(=O)C2CCN(c3ncnc4c3nc3n4CCCCC3)CC2)CC1
-15

###

# run.description: qHTS Assay for Lipid Storage Modulators in Drosophila S3 Cells
# assay.context: BODIPY lipid droplet fluorescence, 18-24 h, cells fed with added oleic acid; series mostly up to 46.1 µM
# Source text: NIH Molecular Libraries Probe Production Centers Network [MLPCN] NIH Chemical Genomics Center [NCGC] […] Triacsin C (Sigma-Aldrich T-4540), an inhibitor of long-chain fatty acyl CoA synthetase that blocks synthesis of triglycerides, was used as a positive control for lipid under-storage. […] Fluorescence was detected by excitation of the fluorophores with a 488-nm laser on an Acumen Explorer (TTP Lab Tech). […] Cells were detected using channel 3 (575-640 nm) with 5-um width and 100-um depth filters. […]
Out of some 320,000 compounds screened, about 2,100 (0.66%) were called active. About 53% were inconclusive and are not listed. Calls follow the shape of the dose curve; as a rule, active = well fitted inhibition curve with a large enough effect in the signal ratio, with a control signal flat (not every such curve was filed as active); inconclusive = small, poorly fitted or top-dose-only effect, or effect the other way, or a change in a side signal; inactive = flat fitted curve, though single readings scatter; the % refers to the signal ratio. For the sample, actives were picked, then their nearest neighbours and some compounds at random.
Allowed answers: active, inactive

# lookup: test call for COc1ccc(OC)c(/C=C/C(=O)NCCc2nc3ccccc3[nH]2)c1
inactive

Next molecule: COc1ccc(/C=C/C(=O)NCCc2nc3ccccc3[nH]2)cc1
inactive

Next molecule: CCCCCn1c(=O)[nH]c2cc(C(=O)N3CCN(CC)CC3)ccc2c1=O
inactive

Next molecule: COCCn1c(=O)[nH]c2cc(C(=O)N3CCN(c4ccccc4F)CC3)ccc2c1=O
active

Next molecule: CCOC(=O)N1CCN(C(=O)c2ccc3c(=O)n(CCc4ccccc4)c(=O)[nH]c3c2)CC1
inactive

Next molecule: CCCCCn1c(=O)[nH]c2cc(C(=O)N3CCN(c4ccccc4F)CC3)ccc2c1=O
inactive

Next molecule: Cc1ccsc1-c1nc(CN2CCCC2c2ccc(F)cc2)c(C)o1 (stereo not given)
inactive

Next molecule: CCOC(=O)N1CCN(C(=O)c2ccc3c(=O)n(CCc4ccc(OC)c(OC)c4)c(=O)[nH]c3c2)CC1
active

Next molecule: COc1cc2[nH]c(=O)n(Cc3ccc(C(=O)NC4CCCC4)cc3)c(=O)c2cc1OC
inactive

Next molecule: CCOC(=O)N1CCN(C(=O)c2ccc3c(=O)n(CCOC)c(=O)[nH]c3c2)CC1
inactive

###

# run.description: qHTS Assay for Lipid Storage Modulators in Drosophila S3 Cells
# assay.context: BODIPY lipid droplet fluorescence, 18-24 h, cells fed with added oleic acid; series mostly up to 46.1 µM
The whole screen tested about 320,000 compounds, of which about 2,100 (0.66%) were called active. Another 53% or so got no clear call; they are omitted. Calls come from the whole dose curve; as a rule, active = well fitted inhibition curve with a large enough effect in the signal ratio, with a control signal flat (not every such curve was filed as active); inconclusive = small, poorly fitted or top-dose-only effect, or effect the other way, or a change in a side signal; inactive = flat fitted curve, though single readings scatter; the % refers to the signal ratio. Shown is part of a subset that was picked to be rich in actives.
Allowed answers: T for active, F for inactive

# lookup: test call for O=C1c2ccccc2C(=O)N1Cc1ccccc1F
T

Next molecule: O=C(O)CN1C(=O)C(=O)N(Cc2ccccc2F)C1=O
F

Next molecule: COc1ccc(OC)c(NC(=O)CC(NCCC2=CCCCC2)C(=O)O)c1 (centres undefined)
T

Next molecule: Cc1ccc(S(=O)(=O)N(CC(=O)N2CCC(C)CC2)c2cccc(C)c2)cc1
F

Next molecule: Cc1ccc(CS(=O)(=O)CCC(=O)NCc2ccc(F)cc2)cc1
F

Next molecule: Cc1cc(C)n2c(SCCO)nnc2n1
F

Next molecule: Cc1ccc(CNC(=O)CCNS(=O)(=O)c2ccc(C)cc2)cc1
F

Next molecule: COCc1nnc(NS(=O)(=O)c2ccc([N+](=O)[O-])cc2)s1
T

Next molecule: COCc1nnc(NS(=O)(=O)c2ccc(C)cc2)s1
F

Next molecule: Cc1ccc(S(=O)(=O)N(CC(=O)N2CCCCC2)c2cccc(C)c2)cc1
F

Next molecule: Cc1cc(C)c(S(=O)(=O)Nc2nnc(CC(C)C)s2)c(C)c1
F

Next molecule: COc1ccc(NC(=O)CC(NCCc2ccccc2)C(=O)O)c(OC)c1 (centres undefined)
F

Next molecule: COc1ccc(C)cc1NC(=O)NCCC1=CCCCC1
F

Next molecule: CCN1CCN(CC(O)COCCOc2ccc(Br)cc2)CC1 (centres undefined)
F

Next molecule: Cc1ccc(S(=O)(=O)Nc2nnc(CC(C)(C)C)s2)cc1
F

Next molecule: COCc1nnc(NS(=O)(=O)c2c(C)cc(C)cc2C)s1
T

Next molecule: O=C1NC(=O)N(Cc2ccccc2F)C1=O
F

Next molecule: Cc1cccn2c(=O)c(/C=C(\C#N)S(=O)(=O)c3ccccc3)c(Oc3ccc(Cl)cc3)nc12
F

Next molecule: Fc1ccccc1C(c1nnnn1C1CCCC1)N1CCN(Cc2ccccc2)CC1 (centres undefined)
F

Next molecule: COCc1nnc(NS(=O)(=O)c2ccc(F)cc2)s1
F

Next molecule: Cc1cc(C)c(S(=O)(=O)Nc2nnc(C)s2)c(C)c1
F

Next molecule: CCOC(=O)N1CCN(C(=O)CN(c2cccc(C)c2)S(=O)(=O)c2ccc(C)cc2)CC1
T

Next molecule: CCCSc1ccc(-c2nn(-c3ccccc3)cc2/C=C(/C#N)C(=O)N2CCOCC2)cc1
F

Next molecule: Cc1ccc(/C=C/S(=O)(=O)NCCC(=O)NCc2ccc(F)cc2)cc1
T

Recorded values, source PubChem BioAssay AID2685.
